# Target system: Proteinase-activated receptor 1 (Homo sapiens)
# Sequence (P25116 whole entry): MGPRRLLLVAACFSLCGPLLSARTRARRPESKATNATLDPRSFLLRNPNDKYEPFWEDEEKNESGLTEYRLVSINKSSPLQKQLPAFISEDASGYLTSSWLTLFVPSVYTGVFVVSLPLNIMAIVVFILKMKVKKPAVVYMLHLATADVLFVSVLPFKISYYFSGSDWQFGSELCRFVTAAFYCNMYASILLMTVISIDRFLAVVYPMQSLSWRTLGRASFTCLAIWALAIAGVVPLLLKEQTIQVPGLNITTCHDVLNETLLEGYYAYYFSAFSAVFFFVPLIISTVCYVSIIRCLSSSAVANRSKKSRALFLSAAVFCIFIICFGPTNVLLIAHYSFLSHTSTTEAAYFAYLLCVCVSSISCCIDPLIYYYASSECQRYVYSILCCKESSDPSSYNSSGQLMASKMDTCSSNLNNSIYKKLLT
# Test protocol: Displacement of [3H]haTRAP from human PAR1 receptor in platelet membrane
Kindly supply the reported pIC50 values for the records listed here.
Answers are plain numbers, as −log10 of the molar value.

Examples with their reported pIC50 follow.
INSERT INTO results (compound, result) VALUES
  ('C[C@H]1OC(=O)[C@@H]2C[C@@H]3CCCC[C@H]3[C@H](/C=C/c3ccc(-c4cccnc4)cn3)[C@H]12', 7.66),
  ('C[C@H]1OC(=O)[C@@H]2C[C@@H]3CCCC[C@H]3[C@H](/C=C/c3ccc(N4CCCC4)cn3)[C@H]12', 7.54),
  ('C[C@H]1OC(=O)[C@@H]2C[C@@H]3CCCC[C@H]3[C@H](/C=C/c3ccc(-c4ccc[n+]([O-])c4)cn3)[C@H]12', 6.68),
  ('C[C@H]1OC(=O)[C@@H]2C[C@@H]3CCCC[C@H]3[C@H](/C=C/c3ccc(-c4ncc[nH]4)cn3)[C@H]12', 5.88),
  ('C[C@H]1OC(=O)[C@@H]2C[C@@H]3CCCC[C@H]3[C@H](/C=C/c3ccc(-c4cccs4)cn3)[C@H]12 (racemic)', 7.80);

Batch of 2 compounds: report pIC50 for each.
1. C[C@H]1OC(=O)[C@@H]2C=C3CCCC[C@H]3[C@H](/C=C/c3ccc(-c4ccccc4)cn3)[C@H]12
2. C[C@H]1OC(=O)[C@@H]2C[C@@H]3CCCC[C@H]3[C@H](/C=C/c3ccc(N4CCOCC4)cn3)[C@H]12

output:
1. 7.37
2. 6.36
